Taken from ChEMBL document CHEMBL1122521.

Hi there, I'd appreciate the recorded IC50 for every entry that follows.
- Test system: L1210
- protocol details: Inhibitory concentration required to reduce cell growth of Murine Leukemia L1210 cells
- Type: functional
- condition notes: Mus musculus, read-out: ID50 (the source's name)
Write the value in µg/mL as a bare number.

Problem: Supply IC50 value. Item: `CC(=O)OCCOCn1cnc2c(Cl)ncnc21`
Result: 44

Problem: Let me know recorded IC50 for `Nc1nc2c(nc(Cl)n2COCCO)c(=O)[nH]1` , thanks.
Result: 350

Problem: For `Nc1nc(Cl)c2ncn(COCCO)c2n1` , write its IC50.
Result: 69

Problem: Specify measured IC50 for `Nc1ccn(COCCO)c(=O)n1` .
Result: 675

Problem: Tell me measured IC50 for `Cc1nc2c(O)nc(N)nc2n1COCCO` please.
Result: 323

Problem: Find the measured IC50 of `O=c1[nH]c(=O)n([C@H]2C[C@H](O)[C@@H](CO)O2)cc1I` and report it.
Result: 61

Problem: Determine its reported IC50: `Nc1nc2c(nc(Br)n2COCCO)c(=O)[nH]1`
Result: 355

Problem: Hello, please tell me recorded IC50 for this one: `Nc1nc(=O)n(COCCO)cc1[N+](=O)[O-]`
Result: 71

Problem: For `Nc1nc2c(nc(I)n2COCCO)c(=O)[nH]1` , write its IC50.
Result: 39

Problem: Retrieve IC50 measured for `Nc1ncnc2c1ncn2COCCO` and print it.
Result: 19

---

- Test system: L1210
- protocol details: Inhibitory concentration required to reduce cell growth of Murine Leukemia L1210 cells
- Format: functional
- condition notes: Mus musculus, read-out: ID50 (the source's name)
value type: IC50

Problem: Identify IC50 associated with the molecule `Nc1nc(=O)ccn1COCCO`
Result: > 500 µg/mL

Problem: Let me know recorded IC50 for `Nc1nc2c(nc(N)n2COCCO)c(=O)[nH]1` , thanks.
Result: > 500 µg/mL

Problem: Output IC50 of `Nc1nc2c(nc(O)n2COCCO)c(=O)[nH]1`
Result: > 500 µg/mL

Problem: Provide only the value of recorded IC50 for `O=c1[nH]c(=O)n(COCCO)cc1/C=C/Br`
Result: > 1000 µg/mL

Problem: Consider the molecule `CC(=O)OCCOCn1cnc2c(Cl)nc(Cl)nc21` . State its measured IC50.
Result: 12 µg/mL

Problem: Provide IC50 value for the following molecule: `O=c1[nH]c(=O)n(COCCO)cc1[N+](=O)[O-]`
Result: 447 µg/mL

Problem: Output measured IC50 for this item: `O=c1[nH]c(=O)n(COCCO)cc1Cl`
Result: > 1000 µg/mL

Problem: Write down IC50 measured for item `CC(=O)OCCOCn1cnc2c(Cl)nc(N)nc21`
Result: 91 µg/mL

Problem: For the molecule `CNc1nc2c(=O)[nH]c(N)nc2n1COCCO` , give its measured IC50 value.
Result: > 500 µg/mL

Problem: Assign IC50 to the following record: `O=c1ccn(COCCO)c(=O)[nH]1`
Result: > 1000 µg/mL

Problem: Quote IC50 reported for `O=c1[nH]c(=O)n(COCCO)cc1Br` please.
Result: > 1000 µg/mL

Problem: For Nc1nc2c(ncn2COCCO)c(=O)[nH]1 [ACYCLOVIR] , write its IC50.
Result: 13 µg/mL

Problem: Return IC50 (reported value) for this molecule: O=c1[nH]c(=O)n([C@H]2C[C@H](O)[C@@H](CO)O2)cc1F [FLOXURIDINE]
Result: 0.001 µg/mL

---

- protocol details: Ratio of ID50 for dThd or dUrd incorporation to ID50 for HSV-1, HSV-2 or VV(whatever was lowest)
- Assay type: functional
Provide the recorded Antiviral index for the entries that follow.
Answer with a bare number; do not write a unit.

Problem: Kindly indicate its recorded Antiviral index. Item: `Nc1nc2c(nc(I)n2COCCO)c(=O)[nH]1`
Result: 625

Problem: // Input: `CNc1nc2c(=O)[nH]c(N)nc2n1COCCO` . Output its Antiviral index only.
Result: 133

Problem: # return recorded Antiviral index for input `Nc1nc(Cl)c2ncn(COCCO)c2n1`
Result: 25

Problem: Entry `CC(=O)OCCOCn1cnc2c(Cl)nc(N)nc21` needs its Antiviral index filled in; supply it.
Result: 2.7

Problem: Consider the compound `CC(=O)OCCOCn1cnc2c(Cl)ncnc21` and give its recorded Antiviral index.
Result: 3

Problem: Give reported Antiviral index value for Nc1nc2c(ncn2COCCO)c(=O)[nH]1 [ACYCLOVIR]
Result: 300

---

- Test system: L1210
- protocol details: Inhibitory concentration required to reduce [3H1',2']dUrd incorporation into cellular DNA by 50% in Murine Leukemia L1210 cells
- Assay type: functional
- condition notes: Mus musculus, read-out: ID50 (the source's name)
value type: IC50

Problem: Give the reported IC50 for this compound. `O=c1ccn(COCCO)c(=O)[nH]1`
Result: > 1000 µg/mL

Problem: Give the value of IC50 reported for the following: `Cc1nc2c(O)nc(N)nc2n1COCCO`
Result: > 500 µg/mL

Problem: Quickly give me recorded IC50 for `Nc1nc(Cl)c2ncn(COCCO)c2n1`
Result: > 1000 µg/mL

Problem: Write down IC50 measured for item `Nc1ccn(COCCO)c(=O)n1`
Result: > 1000 µg/mL

Problem: For `Nc1nc(O)c2nc(N3CCCCC3)n(COCCO)c2n1` , write its IC50.
Result: > 500 µg/mL

Problem: Report IC50 for `O=c1[nH]c(=O)n(COCCO)cc1Br`
Result: > 1000 µg/mL

Problem: Answer with the recorded IC50 for the compound listed here: `O=c1[nH]c(=O)n(COCCO)cc1Cl`
Result: > 1000 µg/mL

Problem: For `CC(=O)OCCOCn1cnc2c(Cl)nc(N)nc21` , write its IC50.
Result: > 1000 µg/mL

Problem: Output measured IC50 for this item: `O=c1[nH]c(=O)n(COCCO)cc1/C=C/Br`
Result: > 1000 µg/mL

Problem: Specify measured IC50 for Nc1nc2c(ncn2COCCO)c(=O)[nH]1 [ACYCLOVIR] .
Result: 50 µg/mL

Problem: Please give measured IC50 of the following entry: `O=c1[nH]c(=O)n(COCCO)cc1[N+](=O)[O-]`
Result: > 1000 µg/mL

Problem: Query IC50 for `O=c1[nH]c(=O)n(COCCO)cc1I`
Result: > 1000 µg/mL

Problem: Report IC50, nothing else, for this compound: `Nc1nc(=O)ccn1COCCO`
Result: > 500 µg/mL

Problem: Complete the entry with IC50 for `Cc1cn(COCCO)c(=O)[nH]c1=O`
Result: > 1000 µg/mL

Problem: Look up and report measured IC50 for this entry: `CC(=O)OCCOCn1cnc2c(Cl)ncnc21`
Result: 233 µg/mL

Problem: Answer with the recorded IC50 of `CC(=O)OCCOCn1cnc2c(Cl)nc(Cl)nc21` only.
Result: 98 µg/mL

Problem: For the compound `Nc1nc2c(nc(Cl)n2COCCO)c(=O)[nH]1` , give its reported IC50.
Result: > 1000 µg/mL

Problem: Annotate the compound `CC(=O)OCCOCn1cc(/C=C/Br)c(=O)[nH]c1=O` with its measured IC50.
Result: > 1000 µg/mL

Problem: Using known records, supply IC50 for `O=c1cc(O)ccn1COCCO`
Result: > 1000 µg/mL

Problem: For `CN(C)c1ncnc2c1ncn2COCCO` , write its IC50.
Result: > 500 µg/mL

Problem: Hello, please tell me recorded IC50 for this one: `OCCOCn1cnc2c(O)ncnc21`
Result: > 1000 µg/mL

Problem: Check the records and state IC50 for `Nc1nc(=O)n(COCCO)cc1[N+](=O)[O-]`
Result: 374 µg/mL

Problem: Look up IC50 of `Nc1ncnc2c1ncn2COCCO` and report it.
Result: > 1000 µg/mL

Problem: Annotate the compound `O=c1[nH]c(=O)n(COCCO)cc1F` with its measured IC50.
Result: > 1000 µg/mL

---

- protocol details: Ratio of ID50 for dThd or dUrd incorporation to ID50 for HSV-1, HSV-2 or VV(whatever was lowest)
- Format: functional
value type: Antiviral index
Lab note: record the figure alone, no unit after it.

Problem: Read off the recorded Antiviral index for `Nc1ncnc2c1ncn2COCCO`
Result: 2.2

Problem: Output measured Antiviral index for this item: `O=c1[nH]c(=O)n([C@H]2C[C@H](O)[C@@H](CO)O2)cc1I`
Result: 3

Problem: Name the recorded Antiviral index of the item `Nc1nc(O)c2nc(N3CCCCC3)n(COCCO)c2n1` in your answer.
Result: 3.5

Problem: Item `CN(C)c1nc2c(=O)[nH]c(N)nc2n1COCCO` : provide Antiviral index
Result: 13

Problem: Item `O=c1[nH]c(=O)n([C@H]2C[C@H](O)[C@@H](CO)O2)cc1/C=C/Br` : provide Antiviral index
Result: 3860

Problem: Report measured Antiviral index; entry is `Nc1nc2c(nc(Br)n2COCCO)c(=O)[nH]1`
Result: 450

Problem: Write down Antiviral index measured for item `Nc1nc2c(nc(N)n2COCCO)c(=O)[nH]1`
Result: 667

Problem: Could you please provide reported Antiviral index for `Nc1nc2c(nc(O)n2COCCO)c(=O)[nH]1` ? Thanks!
Result: 3.2

Problem: State its Antiviral index: `CC(=O)OCCOCn1cnc2c(Cl)nc(Cl)nc21`
Result: 1
